// reported pEC50 per item
System: primary human T-cells
Test: IL2 secretion measurements in CD3-stimulated T-cells
Format: cell-based
Conditions: Homo sapiens, T-cell; CD3 condition, IL2 secretion after 24 hours; read-out: Tcell IL2 CD3 EC50
pEC50: −log10 of the molar value.
property: pEC50

# molecule, sign, reportedValue
rows = [
    ("CC(C)(C)c1cnc(-c2cc3c(cc2F)S(=O)(=O)C[C@H](N)C(=O)N3Cc2ccc(Cl)cc2)nn1", "=", 5.56),
    ("CC(C)(C)c1cc(-c2cc3c(cc2F)S(=O)(=O)C[C@H](N)C(=O)N3Cc2ccc(Cl)cc2)cnn1", "=", 5.96),
    ("COc1ccc(-c2ccc(CN3C(=O)[C@@H](N)CS(=O)(=O)c4cc(F)c(-c5cncc(C(C)(C)C)c5)cc43)cc2)cc1", "=", 6.49),
    ("CCN(CC)c1cnnc(-c2cc3c(cc2F)S(=O)(=O)C[C@H](N)C(=O)N3Cc2ccc(Cl)cc2)n1", "=", 5.78),
    ("CC(C)(C)c1cc(-c2cc3c(cc2F)S(=O)(=O)C[C@H](N)C(=O)N3Cc2ccc(-c3noc(C(F)(F)F)n3)cc2)cnn1", "=", 5.85),
    ("N[C@H]1CS(=O)(=O)c2cc(F)c(-c3nccc(C(F)(F)F)n3)cc2N(Cc2ccc(Cl)cc2)C1=O", "=", 5.74),
    ("CC(C)(c1cncc(-c2cc3c(cc2F)S(=O)(=O)C[C@H](N)C(=O)N3Cc2ccc(-c3noc(C(F)(F)F)n3)cc2)c1)S(C)(=O)=O", "=", 5.34),
    ("Cc1ncc(-c2cc3c(cc2F)S(=O)(=O)C[C@H](N)C(=O)N3Cc2ccc(Cl)cc2)cc1C(C)(C)C", "=", 5.95),
    ("N[C@H]1CS(=O)(=O)c2cc(F)c(-c3cncc(C(F)(F)F)c3)cc2N(Cc2ccc(-c3noc(C(F)(F)F)n3)cc2)C1=O", "=", 5.71),
    ("N[C@H]1CS(=O)(=O)c2cc(F)c(-c3cc(C(F)(F)F)ccn3)cc2N(Cc2ccc(Cl)cc2)C1=O", "<", 4.70),
    ("COc1cc(-c2cc3c(cc2F)S(=O)(=O)C[C@H](N)C(=O)N3Cc2ccc(Cl)cc2)cnn1", "<", 5.00),
    ("CC(C)(C)c1cnnc(-c2cc3c(cc2F)S(=O)(=O)C[C@H](N)C(=O)N3Cc2ccc(Cl)cc2)n1", "=", 6.92),
    ("COC(=O)N1CC2CC(c3cnnc(-c4cc5c(cc4F)S(=O)(=O)C[C@H](N)C(=O)N5Cc4ccc(Cl)cc4)n3)(C2)C1", "=", 5.74),
    ("CS(=O)(=O)C(CCCl)c1cnnc(-c2cc3c(cc2F)S(=O)(=O)C[C@H](N)C(=O)N3Cc2ccc(Cl)cc2)n1 (some centres unmarked)", "<", 5.00),
]

---

Target: DGKzeta (hDGKzeta(1-928)-N-His) (Homo sapiens (Human))
Sequence (Q13574 whole entry): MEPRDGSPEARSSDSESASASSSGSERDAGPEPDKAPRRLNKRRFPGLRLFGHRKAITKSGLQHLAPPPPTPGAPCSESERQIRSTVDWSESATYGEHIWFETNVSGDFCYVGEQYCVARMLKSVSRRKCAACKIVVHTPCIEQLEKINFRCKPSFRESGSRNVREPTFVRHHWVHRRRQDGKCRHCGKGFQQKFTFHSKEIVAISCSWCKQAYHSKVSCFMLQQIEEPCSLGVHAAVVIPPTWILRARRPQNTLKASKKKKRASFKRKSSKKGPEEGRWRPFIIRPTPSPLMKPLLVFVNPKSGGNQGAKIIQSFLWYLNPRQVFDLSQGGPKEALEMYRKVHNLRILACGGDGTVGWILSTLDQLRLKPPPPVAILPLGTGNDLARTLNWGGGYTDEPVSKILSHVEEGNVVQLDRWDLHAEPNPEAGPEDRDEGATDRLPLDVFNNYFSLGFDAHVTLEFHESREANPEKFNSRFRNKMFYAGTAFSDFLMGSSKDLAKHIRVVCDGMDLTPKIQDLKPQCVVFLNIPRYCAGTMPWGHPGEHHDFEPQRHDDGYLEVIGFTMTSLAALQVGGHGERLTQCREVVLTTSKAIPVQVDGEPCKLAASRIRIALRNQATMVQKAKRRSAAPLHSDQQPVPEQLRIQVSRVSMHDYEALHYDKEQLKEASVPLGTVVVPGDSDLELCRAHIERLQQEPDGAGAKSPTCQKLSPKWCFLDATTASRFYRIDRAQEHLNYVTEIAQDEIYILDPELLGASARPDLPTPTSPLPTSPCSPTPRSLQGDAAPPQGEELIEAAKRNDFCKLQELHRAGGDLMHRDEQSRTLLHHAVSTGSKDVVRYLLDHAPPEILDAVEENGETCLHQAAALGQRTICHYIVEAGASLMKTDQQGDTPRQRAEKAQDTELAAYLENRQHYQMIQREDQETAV
pIC50: −log10 of the molar value.
Where pIC50 equals or exceeds 5, the correct label is rule met; where it does not, the label is rule not met.

# molecule, assignedCategory
data = [
    ("COC(=O)N1CC2CC(c3cnnc(-c4cc5c(cc4F)S(=O)(=O)C[C@H](N)C(=O)N5Cc4ccc(Cl)cc4)n3)(C2)C1 [Example 18]", "rule met"),
    ("CC(C)(C)c1cc(-c2cc3c(cc2F)S(=O)(=O)C[C@H](N)C(=O)N3Cc2ccc(Cl)cc2)cnn1 [Example 31]", "rule met"),
    ("CS(=O)(=O)C(CCCl)c1cnnc(-c2cc3c(cc2F)S(=O)(=O)C[C@H](N)C(=O)N3Cc2ccc(Cl)cc2)n1 (stereo partly drawn) [Example 20]", "rule met"),
    ("N[C@H]1CS(=O)(=O)c2cc(F)c(-c3cncc(C(F)(F)F)c3)cc2N(Cc2ccc(-c3noc(C(F)(F)F)n3)cc2)C1=O [Example 24]", "rule not met"),
]

Origin of the recorded values: patent US20250236617A1
